Listed below: IC50 values for each entry.
# Tested on: PDE4
# assayText: Inhibition of PDE4 activity, two-step procedure and Lineweaver-Burk analysis
# Type: biochemical, guinea pig
# recordedConditions: homogenate of guinea pig lungs or hearts
measuredAttribute: IC50

1. CCCCOc1cc(CC2CNC(=O)N2)ccc1OC (centres unmarked) [Ro 20-1724, reference compound] | 4.3 µM
2. COc1cc(O)c2c(c1)O[C@H](c1ccc(OC)c(OC)c1)CC2=O | 3 µM

====

# System: PDE3
# assayText: Inhibition of PDE3 activity, two-step procedure
# Assay type: biochemical
# recordedConditions: homogenate of guinea pig lungs or hearts
pIC50: −log10 of the molar value.
measuredAttribute: pIC50

1) Cc1[nH]c(=O)c(C#N)cc1-c1ccncc1 [milrinone, reference compound] | 5.60
2) COc1cc(O)c2c(c1)O[C@H](c1ccc(OC)c(OC)c1)CC2=O | 4.61
